# assay_system: Type-1 angiotensin II receptor B (Rattus norvegicus)
# Sequence (P29089 whole entry): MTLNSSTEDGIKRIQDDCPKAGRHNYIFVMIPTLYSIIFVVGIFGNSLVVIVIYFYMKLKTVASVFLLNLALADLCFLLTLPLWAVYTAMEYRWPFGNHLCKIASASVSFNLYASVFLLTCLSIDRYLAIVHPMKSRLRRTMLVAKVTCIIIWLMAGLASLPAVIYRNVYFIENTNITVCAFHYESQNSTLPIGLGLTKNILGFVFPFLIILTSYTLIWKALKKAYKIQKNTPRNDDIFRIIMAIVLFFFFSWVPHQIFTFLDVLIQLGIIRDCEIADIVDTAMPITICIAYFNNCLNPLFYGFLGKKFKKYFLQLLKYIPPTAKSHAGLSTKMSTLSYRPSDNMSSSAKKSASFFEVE
pIC50: −log10 of the molar value.
assay_endpoint: pIC50

Solved cases (3 shown):
**Query** // pIC50 lookup, key: CCc1nc2c(C)cc(C)nc2n1Cc1ccc(-c2ncccc2-c2nn[nH]n2)cc1
**Result** 7.74

**Query** // pIC50 lookup, key: CCCCc1nc2c(C)cc(C)nc2n1Cc1ccc(-c2c(C(=O)O)c(N)nc3ccccc23)cc1
**Result** 7.89

**Query** // pIC50 lookup, key: CCCN(CCC)c1nc2ccccc2c(-c2ccc(Cn3c(CC)nc4c(C)cc(C)nc43)cc2)c1C(=O)O
**Result** 6.31

P. CCCCc1nc(CCCC)n(Cc2ccc(-c3ncccc3-c3nnn[nH]3)cc2)n1
Q. CCCc1nc2c(C)cc(C)nc2n1Cc1ccc(-c2c(C(=O)O)c(O)nc3ccccc23)cc1
**Query** Of P and Q , which shows the smaller pIC50 value? Your choice should be expressed through its label.
**Result** Q
(Q: 6.58, P: 7.01)

====

# assay_system: Type-1 angiotensin II receptor B (Rattus norvegicus)
# Sequence (P29089 whole entry): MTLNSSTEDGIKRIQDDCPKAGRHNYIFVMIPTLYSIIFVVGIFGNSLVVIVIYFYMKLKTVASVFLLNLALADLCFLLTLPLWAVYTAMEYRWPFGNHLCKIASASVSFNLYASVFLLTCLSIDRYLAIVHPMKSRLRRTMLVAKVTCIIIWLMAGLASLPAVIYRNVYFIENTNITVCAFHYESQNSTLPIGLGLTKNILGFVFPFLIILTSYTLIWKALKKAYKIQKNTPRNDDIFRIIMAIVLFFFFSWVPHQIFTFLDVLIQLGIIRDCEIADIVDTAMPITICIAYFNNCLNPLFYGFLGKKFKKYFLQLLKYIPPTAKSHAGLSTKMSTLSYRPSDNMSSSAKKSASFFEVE
pIC50: −log10 of the molar value.
assay_endpoint: pIC50

**Query** // pIC50 lookup, key: CCc1nc2c(C)cc(C)nc2n1Cc1ccc(-c2c(C(=O)O)c(N)nc3ccccc23)cc1
**Result** 7.89

I. CCCc1nc2c(C)cc(C)nc2n1Cc1ccc(-c2c(-c3nn[nH]n3)cnc3ccccc23)cc1
II. CCCc1nc2c(C)cc(C)nc2n1Cc1ccc(-c2ccccc2-c2nn[nH]n2)cc1
III. CCc1nc2c(C)cc(C)nc2n1Cc1ccc(-c2c(C(=O)O)ccc3ccccc23)cc1
IV. CCCCc1nc(CCCC)n(Cc2ccc(-c3ccncc3-c3nnn[nH]3)cc2)n1
**Query** Please give the order of these molecules when sorted by pIC50, largest value leading. List the labels in the requested order.
**Result** II, I, III, IV

====

# assay_system: UniProt:P29089
# Sequence (P29089 whole entry): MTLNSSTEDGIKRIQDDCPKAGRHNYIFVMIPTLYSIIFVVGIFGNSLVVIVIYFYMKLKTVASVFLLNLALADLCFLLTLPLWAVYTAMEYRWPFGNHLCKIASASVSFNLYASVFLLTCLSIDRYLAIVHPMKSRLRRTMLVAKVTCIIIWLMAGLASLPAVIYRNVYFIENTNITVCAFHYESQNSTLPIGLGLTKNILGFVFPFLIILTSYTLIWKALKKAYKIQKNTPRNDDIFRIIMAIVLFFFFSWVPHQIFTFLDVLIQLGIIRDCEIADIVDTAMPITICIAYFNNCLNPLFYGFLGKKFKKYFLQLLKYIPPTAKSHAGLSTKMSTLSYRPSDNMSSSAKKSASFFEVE
assay_endpoint: IC50 (nM)

Solved cases (3 shown):
**Query** // IC50 lookup, key: CCc1nc2c(C)cc(C)nc2n1Cc1ccc(-c2c(CC(=O)O)cnc3ccccc23)cc1
**Result** 576

**Query** // IC50 lookup, key: CCc1nc2c(C)cc(C)nc2n1Cc1ccc(-c2c(C(=O)O)c(=O)n(C)c3ccccc23)cc1
**Result** 326

**Query** // IC50 lookup, key: CCc1nc2c(C)cc(C)nc2n1Cc1ccc(-c2ccccc2-c2nnn[nH]2)cc1
**Result** 0.4

a. CCc1nc2c(C)cc(C)nc2n1Cc1ccc(-c2c(CC(=O)O)c(Cl)nc3ccccc23)cc1
b. CCCNc1nc2ccccc2c(-c2ccc(Cn3c(CC)nc4c(C)cc(C)nc43)cc2)c1C(=O)O
**Query** Of a and b , which shows the smaller IC50 value? Your choice should be expressed through its label.
**Result** b

src = ChEMBL document CHEMBL1148280
